experiment: Human HepG2 cell viability assay in 384 well format; format: toxicity, cell-based; set-up: dose 125 nL, time 70.5 hour; concentration not given beside the values; conditions: HepG2 cells, read-out: Inhibition
For each record, write down the corresponding cytotoxicity at 70.5 h.
Give bare numbers, in %.

Examples with answers:
molecule: CCc1nnc(Nc2cc(C)nc(C3CCN(c4cnccn4)C3)n2)s1 (configuration not stated)
measurement units: %
value reported: -15.3

molecule: O[C@H]1CC[C@@H](Cc2cc(-c3ccccc3)on2)O[C@@H]1CNCC1CC1
measurement units: %
value reported: -5.25

molecule: O=C(c1ccncc1)N1C[C@@H]2CC[C@H](C1)N(C(=O)N1CCOCC1)C2
measurement units: %
value reported: -7.89

molecule: Nc1ncc(CN2CCC(CCC(=O)NC3CC3)CC2)cn1
measurement units: %
value reported: 0.29

molecule: Cc1ccc(OCCN2CCC(c3nc(C)n4c(C)csc34)CC2)cc1
measurement units: %
value reported: 3.59

molecule: O=C(NCC1(c2cccs2)CCCCC1)N1CCOC(CO)C1 (configuration not stated)
measurement units: %
value reported: -1.73

molecule: CN1CCN(S(=O)(=O)c2ccc(Cl)c(Cl)c2)c2cnccc21
measurement units: %
value reported: -0.75

molecule: CC(C)c1ncc(CN2C[C@@H](CN3CCC(CO)CC3)[C@@H](CO)C2)cn1
measurement units: %
value reported: -6.31

Hi there! I need cytotoxicity at 70.5 h for each item below, if you can.
1. COc1ccc(C2CCCN2C(=O)CCNc2ncccn2)cc1 (configuration not stated)
2. O=C(NC1CC1)[C@@H]1C[C@@H]2CCN(Cc3ccccc3)C[C@@H]2O1
3. CN(C)c1cccc(C2CCCN2Cc2nnnn2C2CC2)c1 (configuration not stated)

[-5.82, 25.4, -1.65]

Hey, can you go through the list below and give me cytotoxicity at 70.5 h for every item?
1. CCCn1nc2c(cc1=O)CN(CC(=O)Nc1nnc(C)s1)CC2
2. CC(CNC(=O)c1cccnc1Oc1cccnc1)N(C)C (configuration not stated)
3. Cc1cccc(N2Cc3nc(=O)n(Cc4cccc(F)c4)n3C2=O)c1
4. CC(C)CC(=O)N1CC(=O)N(Cc2ccco2)CC(O)C1 (configuration not stated)

1. -22
2. -8.64
3. -18
4. 8.54

----------
assay: Human HepG2 cell viability assay in 384 well format; assay type: toxicity, cell-based; parameters: dose 125 nL, time 70.5 hour; concentration not given beside the values; conditions: HepG2 cells, read-out: Inhibition
measurement kind: cytotoxicity at 70.5 h (%)
Give bare numbers, in %.

compound: Cc1cc(C)n(Cc2cc(C(=O)N[C@H]3CCCCNC3=O)n[nH]2)n1
measurement units: %
value reported: -3.71

compound: Cn1cnc2c1CCN(Cc1ccc(Cl)c3cccnc13)C2
measurement units: %
value reported: 15.6

compound: O=C(COc1ccc(Cl)cc1)Nc1cnc(N2CCOCC2)nc1
measurement units: %
value reported: 1.79

compound: CCc1cnc(CN(C)C2CCN(CCCNS(C)(=O)=O)C2)o1 (stereo unspecified)
measurement units: %
value reported: -2.35

compound: CCN(C)C(=O)c1cnc(-c2noc3cc(N4CCCCC4)ccc23)s1
measurement units: %
value reported: 30.7

compound: CC(Cc1ccco1)NC(=O)Nc1ccc(S(C)(=O)=O)nc1 (stereo unspecified)
measurement units: %
value reported: -2.2

compound: O=C(Cc1n[nH]c(-c2cncc(Br)c2)n1)NCc1ccccn1
measurement units: %
value reported: -8.81

compound: Cc1n[nH]c(C)c1CCNC(=O)C1CCCN(Cc2ccco2)C1 (stereo unspecified)
measurement units: %
value reported: 9.52

compound: CC(c1nc(C2CC2)no1)N1CCN(Cc2cccc(C#N)c2)CC1 (stereo unspecified)
measurement units: %
value reported: -2.01

compound: CCOCC1CN(C(=O)Cc2ccsc2)Cc2ccnn2C1 (stereo unspecified)
measurement units: %
value reported: -6.83

# per-item lookup of cytotoxicity at 70.5 h; items listed below
1. O=C1CCNc2ncc(-c3ccc(Cl)cc3)cc2CN1C1CC1
2. CCc1c(C)nn(CCNC(=O)c2cnn[nH]2)c1C
3. CC(C)Nc1cccc(CNC(=O)N2CCC[C@@H]2CO)c1
4. N#Cc1cccc(C(=O)N2CC[C@H]3[C@H]2CCN3CC2CCOCC2)c1
5. CN(C)c1ccc2c(c1)CN(C(=O)c1ccco1)C2c1cnco1 (stereo unspecified)
6. Cc1nn(C)c(C)c1C1COCCN1C(=O)CSC(C)(C)C (stereo unspecified)

1. -8.11
2. -5.63
3. -2.37
4. 26.3
5. 32.5
6. -18.7

Report cytotoxicity at 70.5 h for each item below.
1. COc1cccc(-c2ccc3nc(C4CCN(C(C)=O)CC4)nn3c2)c1
2. CC(C)NC(=O)N1CCN(CC2CC2)CC2(CC(=O)N(C)C2)C1 (stereo unspecified)
3. CCc1nc(CC(=O)N2CCn3c(C)nnc3C2)cs1
4. Cc1ccn(-c2ccc(C(=O)N3CCCC(C(N)=O)C3)cc2)n1 (stereo unspecified)
5. Cc1nc(NCCO)cc(C(C)Cn2nc(C)c(C)c2C)n1 (stereo unspecified)
6. CCn1cc(CN(C)c2nc(C)c3ccc(S(C)(=O)=O)cc3n2)cn1
7. COCCN1C2(CCN(Cc3nccs3)C2)c2ccccc2S1(=O)=O (stereo unspecified)

-4.61
-4.82
-6.05
-9.79
-3.69
-5.64
-12.7
